Entry source: the supplement of paper PMC4466140

- STUDY_TARGET: AgLsb1
- ASSAY_METHOD_TEXT: SPOT peptide array binding signal intensity (averaged, normalized) (arbitrary units (background-subtracted, floor 0; scale differs between SH3 domains)); higher = stronger binding of the SH3 domain to the peptide
ENDPOINT: SPOT peptide array binding signal intensity
Reply with the value as a number alone.

// SPOT peptide array binding signal intensity value for `LLRRTIPKRPFYHVL` : 1

// SPOT peptide array binding signal intensity value for `NTMKKRPAPPSLPSL` : 15.5

// SPOT peptide array binding signal intensity value for `LPMNIQPDLPPRKIM` : 904

// SPOT peptide array binding signal intensity value for `DKSRPPRPPPKPLHL` : 1.5

// SPOT peptide array binding signal intensity value for `KFIPSRPAPKPPSSA` : 674
